test_system: T1, K280-ac protein fragment (human)
T1 construct: also called mAC
T1 peptide: VQIINK(Ac)KLDLSN
assay_comment: ELISA on K280-ac coated at 250 ng/well, HRP anti-human IgG
Ends that are not written are not given here.
# Criterion met = Absorbance at 450nm at 0.06ug/well below 0.4 (exclusive); Criterion not met = Absorbance at 450nm at 0.06ug/well at/above 0.4

IN: State whether 0.4 exceeds Absorbance at 450nm at 0.06ug/well recorded for ADEL-Y01h v05 antibody (antibody, V domains shown, Humanized antibody; It was detected with anti-human IgG; also called Y01h01v05) VH: EVQLQQSGPGLVKPSQTLSLTCAVSGDSITSGYWNWIRQSPSRGLEWLGYIRYSGRTYYNPSLKSRITINRDTSKNQFSLQLNSVTPEDTAVYYCASVYFTYWGQGTLVTVSS VL: DVVMTQSPDSLAVSLGERATINCKSSQSLLDSDGKTYLNWYQQKPGQSPKRLISLVSKLDSGVPDRFSGSGSGTDFTLTISSLQAEDVAVYYCWQGSHFPYTFGQGTKLEIK .
OUT: Criterion not met

IN: Same read-out for ADEL-Y01h v04 antibody (antibody, V domains shown, Humanized antibody; It was detected with anti-human IgG; also called Y01h01v04) VH: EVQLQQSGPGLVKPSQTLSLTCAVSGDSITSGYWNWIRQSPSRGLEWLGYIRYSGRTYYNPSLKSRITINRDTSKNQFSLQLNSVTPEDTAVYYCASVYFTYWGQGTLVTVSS VL: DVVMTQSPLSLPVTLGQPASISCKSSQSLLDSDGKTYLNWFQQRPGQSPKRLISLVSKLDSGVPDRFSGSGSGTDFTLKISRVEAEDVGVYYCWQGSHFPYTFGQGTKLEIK ?
OUT: Criterion not met

IN: Okay, and v12 (antibody, V domains shown, also called Y01h01v12; ADEL-Y01h v12 antibody) VH: EVQLVESGGGLVQPGRSLRLSCTVSGDSITSGYWNWFRQAPGKGLEYVGYIRYSGRTYYNPSLKSRFTISRDTSKNIAYLQMNSLKTEDTAVYYCASVYFTYWGQGTLVTVSS VL: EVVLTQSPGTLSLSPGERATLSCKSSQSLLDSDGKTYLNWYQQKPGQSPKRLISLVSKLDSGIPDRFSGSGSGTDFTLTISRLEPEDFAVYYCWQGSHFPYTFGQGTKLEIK ?
OUT: Criterion not met

IN: Next: ADEL-Y01h v10 antibody (antibody, V domains shown, Humanized antibody; It was detected with anti-human IgG; also called Y01h01v10) VH: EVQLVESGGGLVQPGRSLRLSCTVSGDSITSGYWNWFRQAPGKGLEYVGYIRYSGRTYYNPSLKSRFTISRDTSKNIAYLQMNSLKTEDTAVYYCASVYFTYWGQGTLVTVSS VL: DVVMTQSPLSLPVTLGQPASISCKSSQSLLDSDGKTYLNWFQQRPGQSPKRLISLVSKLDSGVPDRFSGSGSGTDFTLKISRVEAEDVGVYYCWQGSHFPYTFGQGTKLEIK
OUT: Criterion not met

IN: Here is the next binder: v11 (antibody, V domains shown, also called Y01h01v11; ADEL-Y01h v11 antibody) VH: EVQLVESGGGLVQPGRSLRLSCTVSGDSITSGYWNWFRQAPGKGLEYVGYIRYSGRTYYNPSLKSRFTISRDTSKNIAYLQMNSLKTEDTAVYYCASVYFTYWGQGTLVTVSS VL: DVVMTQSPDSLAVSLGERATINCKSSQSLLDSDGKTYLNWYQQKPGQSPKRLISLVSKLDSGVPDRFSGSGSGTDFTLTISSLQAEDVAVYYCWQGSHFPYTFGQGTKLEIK
OUT: Criterion met
